Target: α4β1 integrin (Homo sapiens (Human), UniProt P05556+P13612)
Sequence (P13612 34-1032): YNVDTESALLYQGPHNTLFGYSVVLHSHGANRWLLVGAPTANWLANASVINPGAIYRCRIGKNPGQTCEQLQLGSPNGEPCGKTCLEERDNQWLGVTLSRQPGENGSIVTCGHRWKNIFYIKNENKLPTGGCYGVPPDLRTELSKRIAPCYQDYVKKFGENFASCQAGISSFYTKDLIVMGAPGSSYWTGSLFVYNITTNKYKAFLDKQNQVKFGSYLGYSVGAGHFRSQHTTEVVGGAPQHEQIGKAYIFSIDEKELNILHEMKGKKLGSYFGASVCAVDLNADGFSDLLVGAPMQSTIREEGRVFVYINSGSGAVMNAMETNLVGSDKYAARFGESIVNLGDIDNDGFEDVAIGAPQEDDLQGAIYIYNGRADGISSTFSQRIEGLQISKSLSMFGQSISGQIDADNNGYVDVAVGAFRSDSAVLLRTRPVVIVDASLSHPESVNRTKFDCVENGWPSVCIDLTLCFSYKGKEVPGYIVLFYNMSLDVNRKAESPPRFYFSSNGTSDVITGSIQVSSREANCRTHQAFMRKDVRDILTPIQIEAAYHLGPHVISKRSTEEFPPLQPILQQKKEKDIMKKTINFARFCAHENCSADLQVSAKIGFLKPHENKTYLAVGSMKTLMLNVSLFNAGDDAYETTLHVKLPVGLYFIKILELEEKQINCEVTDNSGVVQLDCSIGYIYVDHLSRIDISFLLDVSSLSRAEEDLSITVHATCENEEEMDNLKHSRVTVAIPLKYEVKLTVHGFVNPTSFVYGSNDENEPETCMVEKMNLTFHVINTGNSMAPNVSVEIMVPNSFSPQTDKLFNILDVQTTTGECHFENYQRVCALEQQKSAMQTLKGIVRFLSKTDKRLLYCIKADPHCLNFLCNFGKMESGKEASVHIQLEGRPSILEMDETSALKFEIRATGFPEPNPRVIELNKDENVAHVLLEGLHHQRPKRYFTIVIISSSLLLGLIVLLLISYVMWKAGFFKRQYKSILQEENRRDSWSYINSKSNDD
Sequence (P05556 21-798): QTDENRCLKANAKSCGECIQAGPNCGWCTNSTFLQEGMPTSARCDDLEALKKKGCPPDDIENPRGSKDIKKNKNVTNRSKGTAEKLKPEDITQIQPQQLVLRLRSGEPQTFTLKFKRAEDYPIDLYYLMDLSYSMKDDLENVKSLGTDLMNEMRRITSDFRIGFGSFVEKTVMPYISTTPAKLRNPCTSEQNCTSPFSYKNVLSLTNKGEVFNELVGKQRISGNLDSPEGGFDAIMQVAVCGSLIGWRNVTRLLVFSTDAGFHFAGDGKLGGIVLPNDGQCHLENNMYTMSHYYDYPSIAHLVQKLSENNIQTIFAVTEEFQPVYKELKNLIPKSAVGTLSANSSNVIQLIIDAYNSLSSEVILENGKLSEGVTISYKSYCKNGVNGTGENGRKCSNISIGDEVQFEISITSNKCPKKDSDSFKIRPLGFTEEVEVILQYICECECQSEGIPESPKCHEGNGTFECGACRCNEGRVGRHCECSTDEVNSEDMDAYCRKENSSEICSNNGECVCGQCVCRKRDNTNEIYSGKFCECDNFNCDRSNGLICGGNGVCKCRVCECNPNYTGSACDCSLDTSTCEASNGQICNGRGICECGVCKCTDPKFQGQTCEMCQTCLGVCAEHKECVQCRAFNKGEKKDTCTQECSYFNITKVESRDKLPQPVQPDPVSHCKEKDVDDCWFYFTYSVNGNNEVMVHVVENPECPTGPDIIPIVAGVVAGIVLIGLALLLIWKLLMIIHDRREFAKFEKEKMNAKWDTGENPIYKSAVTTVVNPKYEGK
Test: Integrin Adhesion Assay: Protocol 5 (VCAM-coated plate, RPMI-8866 cells with stable LOF mutation of the ITGB7 gene)
Format: cell-based
Conditions: Protocol 5; RPMI-8866 cells with LOF mutation of ITGB7, VCAM; read-out: Mean IC50 α4β1 KO
pIC50: −log10 of the molar value.
recorded.metric: pIC50

Entry CC[C@@H]1CCCCN1Cc1cnc(-c2cccc3c(C[C@H](NC(=O)C4(C(F)(F)F)CCN(CC(F)F)CC4)C(=O)O)cccc23)c2ccccc12 , pIC50 reported as 6.00 to 7.00

response.value for CN1CCCC(c2cnc(-c3cccc4c(C[C@H](NC(=O)C5(C(F)(F)F)CCN(CC(F)(F)F)CC5)C(=O)O)cccc34)c(C(F)(F)F)c2)C1 (stereo partly drawn) (field: pIC50) = 6.00 to 7.00

// recorded pIC50 for COc1ccc(CN2CCN(C)C(C)(C)C2)c(OC)c1-c1cccc2c(C[C@H](NC(=O)C3(C(F)(F)F)CCN(CC(F)(F)F)CC3)C(=O)O)cccc12 : 6.00 to 7.00
